- TGT: Phosphatidylinositol 4-kinase beta (Homo sapiens, UniProt Q9UBF8)
- Sequence (Q9UBF8 whole entry): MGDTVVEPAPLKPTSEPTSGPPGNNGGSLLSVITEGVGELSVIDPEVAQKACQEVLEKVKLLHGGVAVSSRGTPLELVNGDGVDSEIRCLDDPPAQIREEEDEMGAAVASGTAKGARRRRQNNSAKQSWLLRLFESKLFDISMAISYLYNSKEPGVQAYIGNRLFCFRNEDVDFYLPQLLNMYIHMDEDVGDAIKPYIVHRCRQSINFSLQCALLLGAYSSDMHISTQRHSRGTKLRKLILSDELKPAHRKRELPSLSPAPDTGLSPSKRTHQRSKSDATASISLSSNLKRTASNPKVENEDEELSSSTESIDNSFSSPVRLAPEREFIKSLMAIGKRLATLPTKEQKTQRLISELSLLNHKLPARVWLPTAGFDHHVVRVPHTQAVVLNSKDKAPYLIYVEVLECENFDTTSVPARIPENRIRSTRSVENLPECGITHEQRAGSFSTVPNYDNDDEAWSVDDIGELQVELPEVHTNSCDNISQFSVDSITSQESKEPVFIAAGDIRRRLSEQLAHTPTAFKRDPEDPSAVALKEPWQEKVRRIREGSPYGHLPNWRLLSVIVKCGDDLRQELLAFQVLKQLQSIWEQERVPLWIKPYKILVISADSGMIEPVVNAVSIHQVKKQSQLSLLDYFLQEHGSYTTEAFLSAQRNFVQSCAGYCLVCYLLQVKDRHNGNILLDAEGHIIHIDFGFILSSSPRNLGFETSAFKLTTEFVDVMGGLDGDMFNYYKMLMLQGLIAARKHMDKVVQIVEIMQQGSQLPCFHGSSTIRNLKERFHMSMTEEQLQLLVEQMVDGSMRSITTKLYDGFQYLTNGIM
- ASSAY_DETAILS: Inhibition of PI4KB (unknown origin) by drug competition for substrate binding based assay
OBSERVATION_TYPE: pEC50
// pEC50: -log10(molar conc.)

Inquiry: Dear colleague, I am looking for the recorded pEC50 of the following molecule: `CCC(=O)N1CCN(c2ccc(N3C(=O)CCc4cnc5ccc(-c6cnc7ccccc7c6)cc5c43)cc2C(F)(F)F)CC1`
Reply text: 5.18

----------
- TGT: UniProt:Q9UBF8
- ASSAY_DETAILS: Inhibition of PI4KB (unknown origin) by membrane capture assay
OBSERVATION_TYPE: EC50 (µM)
# number only, unit µM dropped from output

Inquiry: Given `Nc1ncc(-c2ccnc(Nc3ccncc3)n2)c(CC2CC2)n1` , state its recorded EC50.
Reply text: 4.43
